target-system: Hypoxia-inducible factor 1-alpha (Homo sapiens) (UniProt Q16665)
Sequence (Q16665 whole entry, looked up): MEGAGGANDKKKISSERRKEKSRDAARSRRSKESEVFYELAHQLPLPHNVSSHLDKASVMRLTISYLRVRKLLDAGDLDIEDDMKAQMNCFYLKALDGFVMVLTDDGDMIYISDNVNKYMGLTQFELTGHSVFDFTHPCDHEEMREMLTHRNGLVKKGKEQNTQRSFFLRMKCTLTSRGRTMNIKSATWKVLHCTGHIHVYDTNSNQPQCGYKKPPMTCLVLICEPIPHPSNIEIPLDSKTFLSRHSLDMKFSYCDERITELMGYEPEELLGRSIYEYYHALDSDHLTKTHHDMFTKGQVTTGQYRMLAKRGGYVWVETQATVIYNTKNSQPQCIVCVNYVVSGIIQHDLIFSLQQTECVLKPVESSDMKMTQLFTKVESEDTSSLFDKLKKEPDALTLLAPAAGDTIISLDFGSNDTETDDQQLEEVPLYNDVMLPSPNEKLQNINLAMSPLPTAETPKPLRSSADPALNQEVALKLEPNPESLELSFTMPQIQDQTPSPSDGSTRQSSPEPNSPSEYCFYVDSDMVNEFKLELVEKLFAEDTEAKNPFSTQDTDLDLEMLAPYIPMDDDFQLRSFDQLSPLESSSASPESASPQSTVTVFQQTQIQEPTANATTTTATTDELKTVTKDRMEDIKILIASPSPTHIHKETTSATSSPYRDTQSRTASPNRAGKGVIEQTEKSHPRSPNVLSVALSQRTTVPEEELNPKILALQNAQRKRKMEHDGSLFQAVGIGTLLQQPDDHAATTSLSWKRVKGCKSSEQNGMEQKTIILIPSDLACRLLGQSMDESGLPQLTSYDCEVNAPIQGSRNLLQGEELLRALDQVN
protocol-details: activators of HIF1alpha nuclear accumulation, confirmation, imaging, fluorescence, U2OS GFP-HIF1alpha (AID 434951)
conditions: U2OS GFP-HIF1alpha nuclear intensity, high-content imaging
Calls of active or inactive are those of the source.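 How the source made its calls: active means a fitted half-maximal concentration EC50 for the rise in nuclear signal no higher than ten times the top dose tested; inconclusive means flat fit with activity between 30% and 70%, or unusable fit; inactive means EC50 beyond ten times the top dose.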
Write down one outcome, taken from active, inactive

Some entries whose results are on file:
compound | label-value
COc1ccc2nc(NC(=O)CSc3nccc(C)n3)sc2c1 | inactive
COc1ccccc1C(=O)Oc1ccccc1C(=O)Nc1ccccc1 | inactive
Cc1cccc(NC(=O)COc2cccc3c2CCN(C)C3=O)c1C | inactive
COc1ccc(-n2c(C)cc(C(=O)CCl)c2C)cc1 | active
O=C1CCCc2ccccc2N1Cc1ccc(F)cc1 | inactive
CC12CC3(C)CC(C)(C1)CC(C(=O)NCCc1ccc(S(N)(=O)=O)cc1)(C2)C3 | inactive
O=C(Cc1ccc(S(=O)(=O)N2CCOCC2)s1)Nc1ccc(S(=O)(=O)N2CCCCC2)cc1 | inactive
C(/CCc1ccccc1)=N\Nc1nc2ccccc2[nH]1 | active

Ask: Identify the outcome logged in this assay for the compound shown: `Cc1cc(C)nc(N/N=C/c2cc(Br)ccc2O)n1`
Result: active

Ask: Per the assay record, what outcome was assigned to `COc1ccccc1NC(=O)c1nc(S(=O)(=O)Cc2ccccc2)ncc1Cl` ?
Result: inactive

Ask: Call for entry O=C(NC(CSCc1ccccc1)C(=O)N/N=C/c1ccc(O)cc1O)c1ccc([N+](=O)[O-])cc1 (stereo not drawn) :
Result: active

Ask: Short answer needed: outcome of this test for `COc1ccc(Cl)c(OC)c1C(=O)NC(=O)Nc1c(F)cc(F)cc1F` ?
Result: inactive

---

target-system: Hypoxia-inducible factor 1-alpha (Homo sapiens) (UniProt Q16665)
protocol-details: activators of HIF1alpha nuclear accumulation, confirmation, imaging, fluorescence, U2OS GFP-HIF1alpha (AID 434951)
conditions: U2OS GFP-HIF1alpha nuclear intensity, high-content imaging
Activity calls are given as the source filed them.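 How the source made its calls: active means a fitted half-maximal concentration EC50 for the rise in nuclear signal no higher than ten times the top dose tested; inconclusive means flat fit with activity between 30% and 70%, or unusable fit; inactive means EC50 beyond ten times the top dose.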
measurement-kind: EC50

Here's what some known entries look like.
molecule | EC50
O=C(CNC(=O)C(c1ccccc1)c1ccccc1)N/N=C/c1ccc(O)cc1O | > 35 µM (inactive)
CC1=NC(C#N)=C(C#N)NC(C)(C)C1 | > 35 µM (inactive)
C/C(=N\Nc1ccc2nncn2n1)c1ccccn1 | 3.84 µM
COc1ccc(CCNC(=O)c2cc(-c3ccco3)on2)cc1OC | 10.8 µM
O=C(COc1cccc2ccccc12)Nc1ccc(Cl)cc1C(=O)O | > 35 µM (inactive)

Form: molecule = `CCOc1ccc(NC(=O)CSc2nnc(Cn3cnc4ccccc43)n2C)cc1` ; EC50 = > 35 µM (inactive)

// sample CCCC(=O)NC(c1ccc(OC)cc1)c1ccc2cccnc2c1O (configuration not stated) , its EC50 was 7.24 µM

Measured EC50, `Oc1c(CN2CCOCC2)cc(COCc2ccccc2)c2cccnc12` : 6.71 µM

---

target-system: Hypoxia-inducible factor 1-alpha (Homo sapiens)
protocol-details: activators of HIF1alpha nuclear accumulation, confirmation, imaging, fluorescence, U2OS GFP-HIF1alpha (AID 434951)
conditions: U2OS GFP-HIF1alpha nuclear intensity, high-content imaging
Calls of active or inactive are those of the source.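 Rule for the calls: active = a fitted half-maximal concentration EC50 for the rise in nuclear signal no higher than ten times the top dose tested; inconclusive = flat fit with activity between 30% and 70%, or unusable fit; inactive = EC50 beyond ten times the top dose.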
Form entry, call: pick from t (active), f (inactive)

molecule | label-value
CCC(=NCc1cc(OC)cc(OC)c1)c1c(O)[nH]c(=O)[nH]c1=O | f
Cc1ccccc1-c1nc2ccccc2c(=O)n1/N=C/c1ccccc1[N+](=O)[O-] | f
CC(C)(C)c1csc(NNC(=O)c2ccc(Br)cc2)n1 | t
COC(=O)c1cn(C)c2ccc(S(=O)(=O)N3CCCCC3)cc2c1=O | f
Cc1cc(C)c2nc(NNC(=O)c3ccc(S(=O)(=O)N4CCCC(C)C4)cc3)sc2c1 (configuration not stated) | t
CCCCOc1ccc(C(=O)NCC(=O)OC2CCOC2=O)cc1 (configuration not stated) | t
Fc1ccc(CSc2ccc(-c3ccco3)nn2)cc1 | f
c1ccc(CSc2ccc(-c3ccccn3)nn2)cc1 | t
CN(Cc1cccnc1)C(=O)c1cc(COc2ccc3ncccc3c2)on1 | f
Cc1ccc(C)c(CNS(=O)(=O)c2ccc3c(c2)C(C)(C)C(=O)N3C)c1 | f

Ask: Hi, do you know how `O=C(c1ccc(-c2nnc(-c3ccccc3)o2)cc1)N1CCCCCC1` came out in this test?
Result: f

Ask: Given `O=C(CNC(=O)c1ccccc1Br)N/N=C/c1cc(Br)ccc1O` , state the outcome it received in this test.
Result: t

Ask: Field: outcome | Entry: `CCCCOC(=O)c1ccc(NC(=S)NC(=O)c2c(Br)c(C)nn2C)cc1`
Result: f

Ask: Each molecule tested received a call. Report the one for `CC1CCN(Cc2c(C(=O)N/N=C/c3ccccc3O)nnn2-c2nonc2N)CC1` .
Result: f

Ask: Would you mind telling me which call this test gave `Cc1cccc(OCCn2cccc2/C=C2/C(=O)NC(=O)N(Cc3ccco3)C2=O)c1` ?
Result: f

Ask: Outcome? CCOc1ccc(NC(=O)CC2C(=O)Nc3ccccc3N2C(=O)c2ccccc2)cc1 (configuration not stated)
Result: f
